measuredTarget: T1, human LIV-1 (human, UniProt Q13433 29-755); also: test concentration or dose not given here
T1 sequence (looked up): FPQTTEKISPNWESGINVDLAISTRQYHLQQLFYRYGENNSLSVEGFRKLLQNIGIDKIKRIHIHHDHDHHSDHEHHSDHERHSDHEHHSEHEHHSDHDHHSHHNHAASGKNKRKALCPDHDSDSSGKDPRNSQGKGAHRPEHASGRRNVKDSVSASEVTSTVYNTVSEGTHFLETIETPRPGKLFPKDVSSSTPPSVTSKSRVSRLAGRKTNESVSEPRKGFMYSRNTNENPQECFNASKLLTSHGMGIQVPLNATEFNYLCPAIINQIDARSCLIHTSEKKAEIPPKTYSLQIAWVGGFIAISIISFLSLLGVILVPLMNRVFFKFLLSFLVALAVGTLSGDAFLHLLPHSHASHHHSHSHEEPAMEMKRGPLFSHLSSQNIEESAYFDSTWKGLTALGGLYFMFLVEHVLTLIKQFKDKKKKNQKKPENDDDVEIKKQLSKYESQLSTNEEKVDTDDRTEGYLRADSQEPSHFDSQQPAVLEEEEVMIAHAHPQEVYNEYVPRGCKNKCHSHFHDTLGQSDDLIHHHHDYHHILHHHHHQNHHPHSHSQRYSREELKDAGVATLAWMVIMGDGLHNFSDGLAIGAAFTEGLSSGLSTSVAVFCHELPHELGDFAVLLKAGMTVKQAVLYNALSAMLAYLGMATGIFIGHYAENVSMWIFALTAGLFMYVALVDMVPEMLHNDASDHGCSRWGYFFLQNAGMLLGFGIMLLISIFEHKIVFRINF
procedureText: cell-based or functional assay
endpointLabel: Cell viability(%)
Answers are plain numbers, in %.

- binder: "282G5A2 (antibody, V domains shown, Tested as chimeric antibody) VH: QVQLQQSGAELVRPGTSVKVSCKASGYALTKYLIEWIKQRPGQGLEWIGVINPGNAGNNYNEKFKGKATLTVDQSSSTAYMQLSSLTSEDSAVYFCARRGRDYAMDNWGQGTSVTVSS VL: EIVLTQSPAIMSASLGEKVTMSCRASSSINYIYWYQQKSDASPKLWIYYTSNLAPGVPARFSGSGSGNSYSLTISSMEDEDAATYYCQQFTSSPLTFGAGTKLELK"
  readoutUnits: "%"
  Cell viability(%): 8.58
- binder: "248H1G3 (antibody, V domains shown, Tested as chimeric antibody) VH: EVQLQQSGPELMKRGASVKISCKTSTFTFTEFTIHWVKQSHGKSLEWIGGINPNTGGTSYNQNFTGKATLTVDKSSITAYMELRSLTSEDSAIYYCAPNWDGYWFFDVWGAGTTVTVSS VL: DIQMTQSPASLSASVGETVTITCRASGNIQNYLAWYQQKQGKSPQLLVYGAKTLADGVPSRFSGSGSGTQFSLKINSLQPEDFGSYYCQHFWSPPLTFGAGTKLELK"
  readoutUnits: "%"
  Cell viability(%): 3.31

Please report Cell viability(%) for every entry that follows.
1. 5D6B10 (antibody, V domains shown, Tested as chimeric antibody) VH: QVQLKQSGPGLVQPSQSLSITCTVSGFSLTTYGIHWVRQSPGKGLEWLGVIWTGGTTDYNAAFISRLSISKDNSKSQVFFKMNSLQANDTAIYYCARGPSSYWGQGTLVTVSA VL: DIVMTQSQKFMSTSVGDRVSVTCKASQNVDTNVVWYQQKPGQSPKALIHSASYRYSGVPDRFTGSGSGTDFTLTISNVQSEDLAEYFCQQYNNYPWTFGGGTKLEIK
2. 59C12C8 (antibody, V domains shown, Tested as chimeric antibody) VH: EVQLQQSGAELVRSGASVKLSCTASDFNIEDYYIHWVKQRPEQGLEWIGWIDPENGDTEYAPKFQGKATMTADTSSNTAYLQLSSLTSEDTAVYYCPHGGGFRVFDYWGQGTTLTVSS VL: DVLMTQTPLSLPVSLGDQASISCRSSQRIVHSNGNTYLEWYLQKPGQSPKLLIYKVSNRFSGVPDRFSGSGSGTDFTLKISRVEAEDLGVYYCFQGSHVPWTFGGGTKLEIK
3. 136F3D10C10 (antibody, V domains shown, Tested as chimeric antibody) VH: QVQLQQSGPELVKPGASVRIFCKASGYTFTSFHIHWVKQRPGQGLEWIGWIYPGNDNTDHNEKFKGKATLSADKSSSTVYMQLSSLTSEDSAVYFCGRSNYYGPLFAYWGQGTLVTVSA VL: DILMTQTPLSLPVSLGDQASISCRSSQNIVRSNGNTYLEWYLQKPGQSPKVLIYRVSNRFSGVPDRFSGSGSGTDFTLKISRVEAEDLGVYYCFQGSYVPYTFGGGTKLEIK

[A]
1. 16.4
2. 20.3
3. 16.3
